Where these numbers come from: the supplement of paper PMC13380429

# System: Vero E6 infected with SARS-CoV-2
# procedure-text: morphology score (similarity to uninfected cells); higher = more like uninfected cells
# condition: 24 h
Attribute: morphology score
Quick one: just the number, no unit, thanks!

INSERT INTO measurements (molecule, value_measured) VALUES
  ('CC#CCC(C)[C@H](O)/C=C/[C@@H]1[C@H]2C/C(=C/CCCC(=O)O)C[C@H]2C[C@H]1O (stereo partly specified) [iloprost] (10 µM)', 0.0115),
  ('CC[C@@]1(O)C(=O)OCc2c1cc1n(c2=O)Cc2cc3ccccc3nc2-1 [camptothecin] (0.833333 µM)', -0.218),
  ('CN1C(=O)CC(C)(c2ccccc2)C1=O (stereo unspecified) [methsuximide] (10 µM)', 0.0784),
  ('C=C1C(=O)[C@]23[C@H](O)[C@H]1CC[C@H]2[C@@]12CO[C@]3(O)[C@@H](O)[C@@H]1C(C)(C)CC[C@@H]2O [Oridonin (Isodonol)] (0.833333 µM)', 0.108),
  ('CN/C(=N\S(=O)(=O)c1ccc(Cl)cc1)N1C[C@H](c2ccccc2)C(c2ccc(Cl)cc2)=N1 (racemic) (10 µM)', -0.133);

Kindly consider the entry below.
Challenge: Give Vero E6 infected with SARS-CoV-2 morphology score for Cn1c(NCCN(CCO)CCCc2ccc([N+](=O)[O-])cc2)cc(=O)n(C)c1=O [nifekalant] (10 µM)
Response given: -0.0636
